FYI, the data here is from patent US20080214621A1.

tested-on: UniProt P28845
Sequence (P28845 whole entry): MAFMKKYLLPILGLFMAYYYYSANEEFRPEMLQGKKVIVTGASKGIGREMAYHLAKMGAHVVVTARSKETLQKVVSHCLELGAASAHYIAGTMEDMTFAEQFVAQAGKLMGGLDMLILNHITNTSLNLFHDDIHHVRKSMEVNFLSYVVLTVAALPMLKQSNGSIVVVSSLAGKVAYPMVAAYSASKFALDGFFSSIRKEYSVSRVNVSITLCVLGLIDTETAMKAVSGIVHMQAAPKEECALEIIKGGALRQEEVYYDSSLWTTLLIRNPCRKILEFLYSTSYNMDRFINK
assay-remarks: 11β-HSD type 1 enzyme assay (NADPH production by fluorescence)
conditions: recombinant human 11β-HSD type 1 enzyme, cortisol/NADP substrate, three hour incubation at room temperature
Experimental: Human 11β-HSD type 1 activity is measured by assaying NADPH production by fluorescence assay. Solid compounds are dissolved in DMSO to a concentration of 10 mM. […] Plates are then transferred to a Tecan Freedom 200 system with an attached Tecan Temo 96-well head and an Ultra 384 plate reader. […] Plates are then shaken once more for 15 seconds then placed into an Ultra 384 microplate reader (355EX/460EM) for detection of NADPH fluorescence.
readout: IC50 (nM)
Give the value, in units of nM, as a plain number.

- O=C1C(Cc2ccc3cc(-c4c(Cl)cccc4Cl)ccc3c2)CCN1C1CCCCC1 (stereo not shown): 344

Please look at COc1ccc2cc(CC3CCCN([C@H]4CC[C@H](O)CC4)C3=O)ccc2c1 (stereo partly shown) and tell me its recorded IC50 on UniProt P28845.
353

Please look at COc1ccc2ccccc2c1CC1CCCN(C2CCCCC2)C1=O (stereo not shown) and tell me its recorded IC50 on UniProt P28845.
423

Please look at COc1ccc2cc(CC3CCN(C4CCCCC4)C3=O)ccc2c1 (stereo not shown) and tell me its recorded IC50 on UniProt P28845.
134

Please look at COc1ccc2c(Cl)c(CC3CCN(C4CCCCC4)C3=O)ccc2c1 (stereo not shown) and tell me its recorded IC50 on UniProt P28845.
213

Please look at O=C1C(Cc2ccc3ccccc3c2Br)CCN1C1CCCCC1 (stereo not shown) and tell me its recorded IC50 on UniProt P28845.
354

Please look at COc1ccc2cc(CC3CCN([C@H]4CC[C@@H](O)CC4)C3=O)ccc2c1 (relative stereo) and tell me its recorded IC50 on UniProt P28845.
247
